# Tested on: autologous EBV-B cells
# experiment_description: 51Cr release assay, peptide-pulsed autologous EBV-B cells with CTL22
# Format: cell-based, human
# condition_label: CTL22, autologous EBV-B cells, 51Cr release; read-out: peptide concentration giving half maximal lysis
pEC50: −log10 of the molar value.
metric_name: pEC50

>  <sequence_data>
MEVDPIGHLY [the first 10 amino acids of SEQ ID NO: 1]

>  <endpoint_value>
8.70

$$$$
